Experiment: in vitro
Conditions: human, cytotoxicity CC50, uninfected Calu-3, geomean

compound	CC50
CCC(CC)COC(=O)[C@H](C)N[P@](=O)(OC[C@H]1O[C@@](C#N)(c2ccc3c(N)ncnn23)[C@H](O)[C@@H]1O)Oc1ccccc1 [Remdesivir]	> 30 µM

* * *

Here's what we have: uninfected Calu-3 CC50 [μM] numbers for Calu-3 cells.
result type: uninfected Calu-3 CC50 [μM]

molecule	result type	experimental result
O=c1[nH]c2ccc(C(F)(F)F)cc2c(-c2cc(Cl)ccc2O)c1CCO	uninfected Calu-3 CC50 [μM]	> 29.867 ×÷ 1 (n=3) μM
N#Cc1cccc(C(C(=O)NCC(c2ccccc2)c2ccccc2)N(CCc2c[nH]cn2)C(=O)c2ccccc2C(=O)c2ccccc2)c1 (centres unmarked)	uninfected Calu-3 CC50 [μM]	> 29.867 ×÷ 1 (n=3) μM
N=C(N)Nc1ccc(C(=O)Oc2ccc(S(N)(=O)=O)cc2)cc1	uninfected Calu-3 CC50 [μM]	> 29.867 ×÷ 1 (n=3) μM
N=C(N)c1ccc2cc(OC(=O)c3ccc(CNC(=O)CCCC(=O)O)o3)ccc2c1	uninfected Calu-3 CC50 [μM]	> 29.867 ×÷ 1 (n=3) μM
CC(=O)N1C[C@H](O)C[C@H]1C(=O)N[C@@H](CCCNC(=N)N)C(=O)c1nc2ccccc2s1	uninfected Calu-3 CC50 [μM]	> 29.867 ×÷ 1 (n=3) μM
CN(C)C(C(=O)Nc1ccc2c(=O)[nH]ccc2c1)c1ccsc1 (centres unmarked)	uninfected Calu-3 CC50 [μM]	> 18.887 ×÷ 2.21 (n=3) μM
O=c1[nH]ccc2cc(OC3CCNCC3)ccc12	uninfected Calu-3 CC50 [μM]	> 29.867 ×÷ 1 (n=3) μM
O[C@@H]1CO[C@H]2[C@@H]1OC[C@H]2Oc1nc2nc(-c3ccc(-c4ccccc4)cc3)c(Cl)cc2[nH]1	uninfected Calu-3 CC50 [μM]	> 29.867 ×÷ 1 (n=3) μM

The values you see were collected from paper PMC8175350.
